Exercise: state measured IC50 for each of the compounds provided.
# system: BRD4-BD1 (Homo sapiens (Human))
# measurement.notes: AlphaLisa bromodomain binding assay, BRD4-BD1
# measurement.conditions: Table 6; read-out: BRD4(1) IC50
One number for each entry, in µM.

{"columns": ["compound", "IC50 [µM]"],
 "data": [
  ["NC(=O)N1CCN(c2ccc(Nc3ncc4ccn(-c5cccc(NS(=O)(=O)C6CC6)c5)c4n3)cc2)CC1", 10],
  ["O=S(=O)(Nc1cccc(-n2ccc3cnc(Nc4ccc(N5CCNCC5)cc4)nc32)c1)C1CC1 [drawing 296]", 0.677],
  ["CC(C)(C)S(=O)(=O)Nc1cccc(-n2ccc3cnc(Nc4ccc(C(=O)N5CCNCC5)c(F)c4)nc32)c1 [drawing 463]", 0.082]
]}

Provide IC50 values for the following items, in order.
1. CN(C)C1CCN(C(=O)c2ccc(Nc3ncc4ccn(-c5ccc(F)c(NS(=O)(=O)C(C)(C)C)c5)c4n3)cc2F)CC1
2. CC(C)S(=O)(=O)Nc1cccc(-n2ccc3cnc(Nc4ccc(N5CCN(C)CC5)cc4)nc32)c1
3. Cc1cc(Nc2ncc3ccn(-c4cccc(NS(=O)(=O)C(C)(C)C)c4)c3n2)ccc1N1CCN(C)CC1
4. Cc1cnc(Nc2ccc(N3CCN(C)CC3)cc2)nc1Nc1cccc(NS(=O)(=O)C(C)(C)C)c1 [drawing 196]
5. CN1CCN(c2ccc(Nc3ncc4ccn(-c5cccc(NS(=O)(=O)C(C)(C)C)c5)c4n3)cc2)CC1 [drawing 288]
6. CN(C)C1CCN(c2ccc(Nc3ncc4ccn(-c5cccc(NS(=O)(=O)C(C)(C)C)c5)c4n3)cc2)CC1 [drawing 368]
7. Cc1cnc(Nc2ccc(N3CCN(C)CC3)cc2)nc1Nc1cccc(NS(=O)(=O)C(C)(C)C)c1 [drawing 339]

Response line:
1: 0.123; 2: 1.02; 3: 0.722; 4: 0.18; 5: 5.01; 6: 0.19; 7: 0.235

Provide IC50 values for the following items, in order.
1. CN1CCN(c2ccc(Nc3ncc4ccn(-c5cccc(NS(=O)(=O)C6CC6)c5)c4n3)cc2)CC1 [drawing 278]
2. O=C1NCCc2c1ccn2-c1cnc(Nc2ccc(F)cc2)nc1
3. CC(C)(C)S(=O)(=O)Nc1cccc(-n2ccc3cnc(Nc4ccc(N5CCOCC5)cc4)nc32)c1
4. CC(C)(C)S(=O)(=O)Nc1cccc(-c2csc3cnc(Nc4ccc5c(c4)CCN4CCNCC54)nc23)c1 (stereo not shown)
5. Cc1ccc(Nc2nc(Nc3ccc(N4CCN(C)CC4)cc3)nc3ccccc23)cc1NS(=O)(=O)C(C)(C)C
6. CN1CCC(Nc2nc(Nc3ccc4c(c3)N(S(=O)(=O)C(C)(C)C)CC4)c3sccc3n2)CC1

Response line:
1. 0.355
2. 11.2
3. 5.53
4. 0.109
5. 0.47
6. 2.11
